# Target Or Test System: EGFR (L858R & T790M) (Homo sapiens, UniProt P00533, L858R/T790M)
# Construct: GST
# Sequence (P00533 25-1210 T790M/L858R): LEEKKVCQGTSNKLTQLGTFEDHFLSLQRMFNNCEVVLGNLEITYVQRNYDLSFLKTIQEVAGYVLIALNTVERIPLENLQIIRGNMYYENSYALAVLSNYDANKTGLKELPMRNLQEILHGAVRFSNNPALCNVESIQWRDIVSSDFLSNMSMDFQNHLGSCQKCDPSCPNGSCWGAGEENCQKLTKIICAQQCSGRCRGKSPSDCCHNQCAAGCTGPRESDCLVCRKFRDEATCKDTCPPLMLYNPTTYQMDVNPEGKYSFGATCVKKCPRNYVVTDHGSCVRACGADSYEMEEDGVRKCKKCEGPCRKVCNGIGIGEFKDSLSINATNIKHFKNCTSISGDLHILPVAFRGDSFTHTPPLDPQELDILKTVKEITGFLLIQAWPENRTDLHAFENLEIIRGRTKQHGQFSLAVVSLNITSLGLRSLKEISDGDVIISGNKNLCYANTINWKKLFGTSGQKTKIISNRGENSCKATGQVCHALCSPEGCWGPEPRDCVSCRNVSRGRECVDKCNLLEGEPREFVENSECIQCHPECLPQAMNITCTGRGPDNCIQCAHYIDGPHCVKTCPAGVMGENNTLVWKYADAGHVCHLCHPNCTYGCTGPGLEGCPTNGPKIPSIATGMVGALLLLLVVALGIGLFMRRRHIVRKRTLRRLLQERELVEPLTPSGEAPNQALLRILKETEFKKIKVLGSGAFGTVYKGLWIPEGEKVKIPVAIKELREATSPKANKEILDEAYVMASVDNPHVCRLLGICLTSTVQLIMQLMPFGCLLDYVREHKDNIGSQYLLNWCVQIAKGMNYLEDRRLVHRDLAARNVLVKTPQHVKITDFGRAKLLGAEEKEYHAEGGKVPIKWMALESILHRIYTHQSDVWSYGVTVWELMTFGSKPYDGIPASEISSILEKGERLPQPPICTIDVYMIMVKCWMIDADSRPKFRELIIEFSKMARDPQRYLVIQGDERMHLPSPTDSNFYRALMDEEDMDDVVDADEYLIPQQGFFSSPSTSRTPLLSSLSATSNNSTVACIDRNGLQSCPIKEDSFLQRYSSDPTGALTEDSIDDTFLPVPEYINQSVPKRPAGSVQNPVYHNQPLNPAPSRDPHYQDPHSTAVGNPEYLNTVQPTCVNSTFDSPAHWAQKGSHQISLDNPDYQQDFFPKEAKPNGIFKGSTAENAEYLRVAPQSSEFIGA
# Assay Text: EGFR (L858R & T790M) inhibition assay, HTRF method
# Reported Conditions: biochemical HTRF; EGFR (T790M/L858R) 2.5 nM, ATP 5 μM, 60 min room temperature
Give measured IC50 for each item. Keep answers brief.

Data request: Respond only with IC50 recorded for C=CC(=O)Nc1ccc(OC2CCOC2)c(Nc2nc(Nc3cnn(C)c3)ncc2Cl)c1 (stereo not drawn)
Data returned: > 100 nM

Data request: Respond only with IC50 recorded for `C=CC(=O)Nc1cccc(Oc2nc(Nc3cnn(CCN(C)C)c3)ncc2Cl)c1`
Data returned: 10 to 100 nM

Data request: Respond only with IC50 recorded for `C=CC(=O)Nc1cccc(Nc2nc(Nc3cnn(S(C)(=O)=O)c3)ncc2Cl)c1`
Data returned: 10 to 100 nM

Data request: Respond only with IC50 recorded for C=CC(=O)NC1CCCC(Nc2nc(Nc3cnn(C)c3)ncc2C)C1 (stereo not drawn)
Data returned: > 100 nM

Data request: Respond only with IC50 recorded for C=CC(=O)NC1CCCC(Oc2nc(Nc3cnn(C)c3)ncc2Cl)C1 (single isomer, unassigned) [I-88 (Isomer 1)]
Data returned: > 100 nM

Data request: Respond only with IC50 recorded for C=CC(=O)Nc1cccc(Nc2nc(Nc3cnn(C4CCOC4)c3)ncc2Cl)c1 (stereo not drawn)
Data returned: 10 to 100 nM

Data request: Respond only with IC50 recorded for `C=CC(=O)Nc1cccc(Nc2nc(Nc3cnn(CC4CC4)c3)ncc2Cl)c1`
Data returned: 10 to 100 nM

Data request: Respond only with IC50 recorded for `C=CC(=O)Nc1cc(Cl)cc(Nc2nc(Nc3cnn(C)c3)ncc2Cl)c1`
Data returned: < 10 nM

Data request: Respond only with IC50 recorded for `C=C(F)C(=O)Nc1cccc(Nc2nc(Nc3cnn(C)c3)ncc2Cl)c1`
Data returned: > 100 nM

Data request: Respond only with IC50 recorded for C=CC(=O)N1CCCC(Nc2nc(Nc3cnn(C)c3)ncc2Cl)C1 (single isomer, unassigned) [II-1 (Enantiomer 1)]
Data returned: > 100 nM

Data request: Respond only with IC50 recorded for `C=CC(=O)Nc1cccc(Nc2nc(Nc3nc(C)cs3)ncc2Cl)c1`
Data returned: 10 to 100 nM

Data request: Respond only with IC50 recorded for `CN(C)C/C=C/C(=O)Nc1cccc(Nc2nc(Nc3cnn(C4CCN(C)CC4)c3)ncc2Cl)c1`
Data returned: > 100 nM

Data request: Respond only with IC50 recorded for `C=CC(=O)Nc1cccc(Nc2nc(Nc3cnn(C)c3)ncc2Cl)n1`
Data returned: 10 to 100 nM

Data request: Respond only with IC50 recorded for C=CC(=O)N[C@@H]1CCCC[C@H](Nc2nc(Nc3cnn(C)c3)ncc2Cl)C1 (single isomer, unassigned) [I-113 (Isomer 2)]
Data returned: 10 to 100 nM

Data request: Respond only with IC50 recorded for `C=CC(=O)Nc1cccc(Nc2nc(Nc3cnn(C4CCN(C)CC4)c3)ncc2Cl)c1`
Data returned: < 10 nM

Data request: Respond only with IC50 recorded for `C=CC(=O)Nc1cccc(Nc2nc(Nc3cnn(C4COC4)c3)ncc2Cl)c1`
Data returned: 10 to 100 nM

Data request: Respond only with IC50 recorded for C=CC(=O)Nc1cc(Nc2nc(Nc3cnn(C)c3)ncc2Cl)ccc1OC1CCOC1 (stereo not drawn)
Data returned: > 100 nM

Data request: Respond only with IC50 recorded for `C=CC(=O)Nc1ccc(F)c(Nc2nc(Nc3cnn(C)c3C)ncc2Cl)c1`
Data returned: 10 to 100 nM

###

# Target Or Test System: EGFR (L858R & T790M) (Homo sapiens, UniProt P00533, L858R/T790M)
# Construct: GST
# Assay Text: EGFR (L858R & T790M) inhibition assay, HTRF method
# Reported Conditions: biochemical HTRF; EGFR (T790M/L858R) 2.5 nM, ATP 5 μM, 60 min room temperature
Structures can show the parent of a compound that is named as a salt.
Give measured IC50 for each item. Keep answers brief.

Data request: Lab note: EGFR (L858R & T790M) (Homo sapiens, UniProt P00533, L858R/T790M) assay, enter IC50 for C=CC(=O)N1CCCC(Oc2nc(Nc3cnn(C)c3)ncc2Cl)C1 (single isomer, unassigned) [II-12 (Enantiomer 1)] here
Data returned: > 100 nM

Data request: Lab note: EGFR (L858R & T790M) (Homo sapiens, UniProt P00533, L858R/T790M) assay, enter IC50 for C=CC(=O)NC1CCC(Nc2nc(Nc3cnn(C)c3)ncc2Cl)CC1 (centres unmarked) [Compound I-94] here
Data returned: > 100 nM

Data request: Lab note: EGFR (L858R & T790M) (Homo sapiens, UniProt P00533, L858R/T790M) assay, enter IC50 for C=CC(=O)NCC1CCCC(Nc2nc(Nc3cnn(C)c3)ncc2Cl)C1 (centres unmarked) [Compound I-108] here
Data returned: > 100 nM

Data request: Lab note: EGFR (L858R & T790M) (Homo sapiens, UniProt P00533, L858R/T790M) assay, enter IC50 for C=CS(=O)(=O)Nc1cccc(Nc2nc(Nc3cnn(C)c3)ncc2Cl)c1 [Compound I-65] here
Data returned: 10 to 100 nM

Data request: Lab note: EGFR (L858R & T790M) (Homo sapiens, UniProt P00533, L858R/T790M) assay, enter IC50 for C=CC(=O)Nc1cccc(Nc2nc(Nc3cc(C)ns3)ncc2Cl)c1 [Compound I-122] here
Data returned: < 10 nM

Data request: Lab note: EGFR (L858R & T790M) (Homo sapiens, UniProt P00533, L858R/T790M) assay, enter IC50 for C=CC(=O)Nc1cc(Nc2nc(Nc3cnn(C)c3)ncc2Cl)c(F)cc1F [Compound I-68] here
Data returned: 10 to 100 nM

Data request: Lab note: EGFR (L858R & T790M) (Homo sapiens, UniProt P00533, L858R/T790M) assay, enter IC50 for C=CC(=O)Nc1cccc(Oc2nc(Nc3cnn(C(C)C)c3)ncc2Cl)c1 [Compound I-79] here
Data returned: 10 to 100 nM

Data request: Lab note: EGFR (L858R & T790M) (Homo sapiens, UniProt P00533, L858R/T790M) assay, enter IC50 for C=CC(=O)NC1CCC(Nc2nc(Nc3cnn(C)c3)ncc2Cl)C1 (centres unmarked) [Compound I-93] here
Data returned: > 100 nM

Data request: Lab note: EGFR (L858R & T790M) (Homo sapiens, UniProt P00533, L858R/T790M) assay, enter IC50 for C=CC(=O)Nc1cccc(Nc2nc(Nc3cnn(C)c3C)ncc2Cl)n1 (single isomer, unassigned) [Compound I-74] here
Data returned: > 100 nM

Data request: Lab note: EGFR (L858R & T790M) (Homo sapiens, UniProt P00533, L858R/T790M) assay, enter IC50 for C=CC(=O)Nc1cccc(Oc2nc(Nc3cnn(C)c3)ncc2Cl)c1 [Compound I-85] here
Data returned: < 10 nM

Data request: Lab note: EGFR (L858R & T790M) (Homo sapiens, UniProt P00533, L858R/T790M) assay, enter IC50 for C=CC(=O)Nc1ccc(F)c(N(C)c2nc(Nc3cnn(C)c3)ncc2Cl)c1 [Compound I-111] here
Data returned: < 10 nM

Data request: Lab note: EGFR (L858R & T790M) (Homo sapiens, UniProt P00533, L858R/T790M) assay, enter IC50 for C=CC(=O)Nc1cccc(Nc2nc(Nc3cnn(C)c3)ncc2C2CC2)c1 [Compound I-76] here
Data returned: 10 to 100 nM

Data request: Lab note: EGFR (L858R & T790M) (Homo sapiens, UniProt P00533, L858R/T790M) assay, enter IC50 for C=CC(=O)N1CCC(Nc2nc(Nc3cnn(C)c3)ncc2Cl)CC1 [II-8] here
Data returned: > 100 nM

Data request: Lab note: EGFR (L858R & T790M) (Homo sapiens, UniProt P00533, L858R/T790M) assay, enter IC50 for C=CC(=O)N[C@@H]1CCC[C@@H](Nc2nc(Nc3cnn(C)c3)ncc2Cl)C1 (single isomer, unassigned) [I-106 (Enantiomer 1)] here
Data returned: > 100 nM

Data request: Lab note: EGFR (L858R & T790M) (Homo sapiens, UniProt P00533, L858R/T790M) assay, enter IC50 for C=CC(=O)NC1CCCC(Nc2nc(Nc3cn(C)nc3Cl)ncc2Cl)C1 (centres unmarked) [Compound I-95] here
Data returned: 10 to 100 nM

Data request: Lab note: EGFR (L858R & T790M) (Homo sapiens, UniProt P00533, L858R/T790M) assay, enter IC50 for C=CC(=O)Nc1cccc(Nc2nc(Nc3cc(CN4CCC4)n(C)n3)ncc2Cl)c1 [Compound I-42, acetate salt] here
Data returned: > 100 nM

Data request: Lab note: EGFR (L858R & T790M) (Homo sapiens, UniProt P00533, L858R/T790M) assay, enter IC50 for C=CC(=O)Nc1cccc(Nc2nc(Nc3cnn(C)c3C)ncc2Cl)c1 [Compound I-23] here
Data returned: > 100 nM

Data request: Lab note: EGFR (L858R & T790M) (Homo sapiens, UniProt P00533, L858R/T790M) assay, enter IC50 for C=CC(=O)Nc1ccc(F)c(Nc2nc(Nc3cc(C)ns3)ncc2Cl)c1 [Compound I-117] here
Data returned: < 10 nM

Data request: Lab note: EGFR (L858R & T790M) (Homo sapiens, UniProt P00533, L858R/T790M) assay, enter IC50 for C=CC(=O)Nc1ccc(F)c(Nc2nc(Nc3ncc(C#N)s3)ncc2Cl)c1 [Compound I-121] here
Data returned: > 100 nM

Data request: Lab note: EGFR (L858R & T790M) (Homo sapiens, UniProt P00533, L858R/T790M) assay, enter IC50 for C=CC(=O)Nc1cc(Nc2nc(Nc3cnn(C)c3)ncc2Cl)ccc1F [Compound I-66] here
Data returned: 10 to 100 nM

Data request: Lab note: EGFR (L858R & T790M) (Homo sapiens, UniProt P00533, L858R/T790M) assay, enter IC50 for C=CC(=O)N[C@H]1CCCC[C@@H](Nc2nc(Nc3cnn(C)c3)ncc2Cl)C1 (single isomer, unassigned) [I-112 (Isomer 1)] here
Data returned: > 100 nM

Data request: Lab note: EGFR (L858R & T790M) (Homo sapiens, UniProt P00533, L858R/T790M) assay, enter IC50 for C=CC(=O)Nc1cccc(Nc2nc(Nc3ncc(C)s3)ncc2Cl)c1 [Compound I-123] here
Data returned: 10 to 100 nM

Data request: Lab note: EGFR (L858R & T790M) (Homo sapiens, UniProt P00533, L858R/T790M) assay, enter IC50 for C=CC(=O)N1CCC(Oc2nc(Nc3cnn(C)c3)ncc2Cl)C1 (single isomer, unassigned) [II-10 (Enantiomer 1)] here
Data returned: > 100 nM
